# experiment summary: Drug degradation assessed as bovine pancreas chymotrypsin-mediated compound hydrolysis by measuring remaining compound levels at 10 mM measured at 0.5 hrs by RP-HPLC method
# Format: ADME, Bos taurus
# test parameters: cattle, read-out: Stability
result type: remaining at 0.5 h, 10000 µM (%)
Give a bare numeral; the unit % is implied.

Lookup result for CC(=O)N[C@@H](Cc1ccccc1)C(=O)NCC(=O)N[C@H]1C[C@@H](C(=O)N[C@@H](CCCCN)C(=O)N[C@@H](CCCCN)C(=O)N[C@@H](CCCNC(=N)N)C(=O)N[C@H]2C[C@@H](C(=O)N[C@@H](CCC(N)=O)C(=O)N[C@H]3C[C@@H](C(=O)N[C@@H](CCCNC(=N)N)C(=O)N[C@H]4C[C@@H](C(=O)NCCC(N)=O)N(CCCNC(=N)N)C4)N(CCCNC(=N)N)C3)N(CCCNC(=N)N)C2)N(CCCNC(=N)N)C1 ; measured remaining at 0.5 h, 10000 µM: 100

Lookup result for CC(=O)N[C@@H](Cc1ccccc1)C(=O)NCC(=O)N[C@@H](CCCNC(=N)N)C(=O)N[C@@H](CCCCN)C(=O)N[C@@H](CCCCN)C(=O)N[C@@H](CCCNC(=N)N)C(=O)N[C@@H](CCCNC(=N)N)C(=O)N[C@@H](CCC(N)=O)C(=O)N[C@@H](CCCNC(=N)N)C(=O)N[C@@H](CCCNC(=N)N)C(=O)N[C@@H](CCCNC(=N)N)C(N)=O ; measured remaining at 0.5 h, 10000 µM: 86.7

###

I'd be grateful if you could share measured remaining at 2 h, 10000 µM for these entries.
# experiment summary: Drug degradation assessed as bovine pancreas chymotrypsin-mediated compound hydrolysis by measuring remaining compound levels at 10 mM measured at 2 hrs by RP-HPLC method
# Assay type: ADME, Bos taurus
# test parameters: cattle, read-out: Stability
Give a bare numeral; the unit % is implied.

Lookup result for CC(=O)N[C@@H](Cc1ccccc1)C(=O)NCC(=O)N[C@@H](CCCNC(=N)N)C(=O)N[C@@H](CCCCN)C(=O)N[C@@H](CCCCN)C(=O)N[C@@H](CCCNC(=N)N)C(=O)N[C@@H](CCCNC(=N)N)C(=O)N[C@@H](CCC(N)=O)C(=O)N[C@@H](CCCNC(=N)N)C(=O)N[C@@H](CCCNC(=N)N)C(=O)N[C@@H](CCCNC(=N)N)C(N)=O ; measured remaining at 2 h, 10000 µM: 84.6

Lookup result for CC(=O)N[C@@H](Cc1ccccc1)C(=O)NCC(=O)N[C@H]1C[C@@H](C(=O)N[C@@H](CCCCN)C(=O)N[C@@H](CCCCN)C(=O)N[C@@H](CCCNC(=N)N)C(=O)N[C@H]2C[C@@H](C(=O)N[C@@H](CCC(N)=O)C(=O)N[C@H]3C[C@@H](C(=O)N[C@@H](CCCNC(=N)N)C(=O)N[C@H]4C[C@@H](C(=O)NCCC(N)=O)N(CCCNC(=N)N)C4)N(CCCNC(=N)N)C3)N(CCCNC(=N)N)C2)N(CCCNC(=N)N)C1 ; measured remaining at 2 h, 10000 µM: 100

###

# experiment summary: Drug degradation assessed as bovine pancreas chymotrypsin-mediated compound hydrolysis by measuring remaining compound levels at 10 mM measured at 4 hrs by RP-HPLC method
# Type: ADME, Bos taurus
# test parameters: cattle, read-out: Stability
I'd be grateful if you could share measured remaining at 4 h, 10000 µM for these entries.
Give a bare numeral; the unit % is implied.

Lookup result for CC(=O)N[C@@H](Cc1ccccc1)C(=O)NCC(=O)N[C@H]1C[C@@H](C(=O)N[C@@H](CCCCN)C(=O)N[C@@H](CCCCN)C(=O)N[C@@H](CCCNC(=N)N)C(=O)N[C@H]2C[C@@H](C(=O)N[C@@H](CCC(N)=O)C(=O)N[C@H]3C[C@@H](C(=O)N[C@@H](CCCNC(=N)N)C(=O)N[C@H]4C[C@@H](C(=O)NCCC(N)=O)N(CCCNC(=N)N)C4)N(CCCNC(=N)N)C3)N(CCCNC(=N)N)C2)N(CCCNC(=N)N)C1 ; measured remaining at 4 h, 10000 µM: 100

Lookup result for CC(=O)N[C@@H](Cc1ccccc1)C(=O)NCC(=O)N[C@@H](CCCNC(=N)N)C(=O)N[C@@H](CCCCN)C(=O)N[C@@H](CCCCN)C(=O)N[C@@H](CCCNC(=N)N)C(=O)N[C@@H](CCCNC(=N)N)C(=O)N[C@@H](CCC(N)=O)C(=O)N[C@@H](CCCNC(=N)N)C(=O)N[C@@H](CCCNC(=N)N)C(=O)N[C@@H](CCCNC(=N)N)C(N)=O ; measured remaining at 4 h, 10000 µM: 82.6

###

# experiment summary: Drug degradation assessed as bovine pancreas chymotrypsin-mediated compound hydrolysis by measuring remaining compound levels at 10 mM measured at 18 hrs by RP-HPLC method
# Type: ADME, Bos taurus
# test parameters: cattle, read-out: Stability
I'd be grateful if you could share measured remaining at 18 h, 10000 µM for these entries.
Give a bare numeral; the unit % is implied.

Lookup result for CC(=O)N[C@@H](Cc1ccccc1)C(=O)NCC(=O)N[C@H]1C[C@@H](C(=O)N[C@@H](CCCCN)C(=O)N[C@@H](CCCCN)C(=O)N[C@@H](CCCNC(=N)N)C(=O)N[C@H]2C[C@@H](C(=O)N[C@@H](CCC(N)=O)C(=O)N[C@H]3C[C@@H](C(=O)N[C@@H](CCCNC(=N)N)C(=O)N[C@H]4C[C@@H](C(=O)NCCC(N)=O)N(CCCNC(=N)N)C4)N(CCCNC(=N)N)C3)N(CCCNC(=N)N)C2)N(CCCNC(=N)N)C1 ; measured remaining at 18 h, 10000 µM: 100

Lookup result for CC(=O)N[C@@H](Cc1ccccc1)C(=O)NCC(=O)N[C@@H](CCCNC(=N)N)C(=O)N[C@@H](CCCCN)C(=O)N[C@@H](CCCCN)C(=O)N[C@@H](CCCNC(=N)N)C(=O)N[C@@H](CCCNC(=N)N)C(=O)N[C@@H](CCC(N)=O)C(=O)N[C@@H](CCCNC(=N)N)C(=O)N[C@@H](CCCNC(=N)N)C(=O)N[C@@H](CCCNC(=N)N)C(N)=O ; measured remaining at 18 h, 10000 µM: 75.1

###

# experiment summary: Drug degradation assessed as pepsin (unknown origin)-mediated compound hydrolysis by measuring remaining compound levels at 2 hrs by RP-HPLC method
# Assay type: ADME
# test parameters: human, read-out: Stability
result type: remaining at 2 h

Lookup result for CC(=O)N[C@@H](Cc1ccccc1)C(=O)NCC(=O)N[C@H]1C[C@@H](C(=O)N[C@@H](CCCCN)C(=O)N[C@@H](CCCCN)C(=O)N[C@@H](CCCNC(=N)N)C(=O)N[C@H]2C[C@@H](C(=O)N[C@@H](CCC(N)=O)C(=O)N[C@H]3C[C@@H](C(=O)N[C@@H](CCCNC(=N)N)C(=O)N[C@H]4C[C@@H](C(=O)NCCC(N)=O)N(CCCNC(=N)N)C4)N(CCCNC(=N)N)C3)N(CCCNC(=N)N)C2)N(CCCNC(=N)N)C1 ; measured remaining at 2 h: 100%

Lookup result for CC(=O)N[C@@H](Cc1ccccc1)C(=O)NCC(=O)N[C@@H](CCCNC(=N)N)C(=O)N[C@@H](CCCCN)C(=O)N[C@@H](CCCCN)C(=O)N[C@@H](CCCNC(=N)N)C(=O)N[C@@H](CCCNC(=N)N)C(=O)N[C@@H](CCC(N)=O)C(=O)N[C@@H](CCCNC(=N)N)C(=O)N[C@@H](CCCNC(=N)N)C(=O)N[C@@H](CCCNC(=N)N)C(N)=O ; measured remaining at 2 h: 93.1%

###

I'd be grateful if you could share measured remaining at 8 h, 10000 µM for these entries.
# experiment summary: Drug degradation assessed as bovine pancreas chymotrypsin-mediated compound hydrolysis by measuring remaining compound levels at 10 mM measured at 8 hrs by RP-HPLC method
# Assay type: ADME, Bos taurus
# test parameters: cattle, read-out: Stability
Give a bare numeral; the unit % is implied.

Lookup result for CC(=O)N[C@@H](Cc1ccccc1)C(=O)NCC(=O)N[C@H]1C[C@@H](C(=O)N[C@@H](CCCCN)C(=O)N[C@@H](CCCCN)C(=O)N[C@@H](CCCNC(=N)N)C(=O)N[C@H]2C[C@@H](C(=O)N[C@@H](CCC(N)=O)C(=O)N[C@H]3C[C@@H](C(=O)N[C@@H](CCCNC(=N)N)C(=O)N[C@H]4C[C@@H](C(=O)NCCC(N)=O)N(CCCNC(=N)N)C4)N(CCCNC(=N)N)C3)N(CCCNC(=N)N)C2)N(CCCNC(=N)N)C1 ; measured remaining at 8 h, 10000 µM: 100

Lookup result for CC(=O)N[C@@H](Cc1ccccc1)C(=O)NCC(=O)N[C@@H](CCCNC(=N)N)C(=O)N[C@@H](CCCCN)C(=O)N[C@@H](CCCCN)C(=O)N[C@@H](CCCNC(=N)N)C(=O)N[C@@H](CCCNC(=N)N)C(=O)N[C@@H](CCC(N)=O)C(=O)N[C@@H](CCCNC(=N)N)C(=O)N[C@@H](CCCNC(=N)N)C(=O)N[C@@H](CCCNC(=N)N)C(N)=O ; measured remaining at 8 h, 10000 µM: 79.6
